B1: Mineralocorticoid receptor, residues 600 to 675; numbered along this chain, P08235 (parent)
chain: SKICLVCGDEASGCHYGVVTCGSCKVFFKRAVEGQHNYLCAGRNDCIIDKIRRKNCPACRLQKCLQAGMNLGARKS

variants of: B1; test: abundance fitness (aPCA) (normalised: wild type 0, dead -1); higher = more abundant; growth selection in yeast, the domain comes from the species named; conditions: Homo sapiens
Each item that follows carries a reported abundance fitness.

Some entries whose results are on file:
input: Which measured abundance fitness value corresponds to R74E ?
output: 0.056

input: Which measured abundance fitness value corresponds to G42N ?
output: -0.025

More entries:
input: Which measured abundance fitness value corresponds to M69Q ?
output: -0.262

input: Which measured abundance fitness value corresponds to E33Y ?
output: -0.088

input: Which measured abundance fitness value corresponds to D9I ?
output: -0.168

input: Which measured abundance fitness value corresponds to C64F ?
output: -0.466

input: Which measured abundance fitness value corresponds to R53I ?
output: -0.098

input: Which measured abundance fitness value corresponds to K25R ?
output: -0.051

input: Which measured abundance fitness value corresponds to K54D ?
output: -0.031

// provenance: the Human Domainome abundance scans (Beltran et al. 2025)
